# Tested on: ACHN renal
# assaySummary: NCI-60 one-dose screen, 48 h (100 = growth as untreated, 0 = no growth, -100 = all killed)
# conditionDescription: 10 µM
Compounds without any hit were thinned out: in the full panel of roughly 83,000, 20% have a hit.
Label true when growth is at or above 70%; otherwise label false.

In [3]: df
Out[3]:
                                     smiles  classname
0  N#Cc1ccc(-c2nn(-c3ccc(C(=O)O)cc3)cc2CNc2ccc(Cl)cc2)cc1       true
1  O=C(N/N=C/c1ccc(-c2cccc([N+](=O)[O-])c2)o1)c1[nH]c2ccc(Br)cc2c1-c1ccccc1      false
2  CN1CCN(c2ccc(Nc3nc(NCCCNC(=O)c4ccccc4)c4sccc4n3)cc2)CC1      false
3  CC(=O)c1ccc(NC(=O)NCn2c(=O)[nH]c3ccccc3c2=O)cc1       true
4  COc1cc2c(cc1OC)CN(CCCCOc1cc(O)c3c(=O)cc(-c4ccccc4)oc3c1)CC2      false
5  O=C(NO)c1ccc(Cn2ccc3c(NCc4ccccc4)ncnc32)cc1      false
6  Cn1c(O)c(N=Nc2nc(-c3cc4ccccc4oc3=O)cs2)c2cc(Br)ccc21      false
7  CN1CCN(c2ccc(Nc3nc(N4CCN(S(=O)(=O)c5ccc(F)cc5)CC4)c4sccc4n3)cc2)CC1      false
8  COc1ccc(-c2cc(-c3cc(C(=O)c4ccc(Br)cc4)n4ccc(C)cc34)nc(N)c2C#N)cc1       true

* * *

# Test system: HS 578T breast
# assaySummary: NCI-60 one-dose screen, 48 h (100 = growth as untreated, 0 = no growth, -100 = all killed)
# conditionDescription: 10 µM
This is part of a sample that, as a whole, favours compounds with a hit. Of some 83,000 tested, about 20% had one in any assay.
Label true (1) when growth is at or above 20%; otherwise label false (0).

>>> print(df.to_string())
                                   compound  classname
0  CCOC(=O)C1NN(c2ccc(S(N)(=O)=O)cc2)c2nc3nc(-c4cccs4)cc(-c4cccs4)c3c(=O)n21 (stereo not given)  false (0)
1  COC1=C[C@@]23CCC(=O)N2CCc2cc4c(cc2[C@H]3[C@H]1OC(=O)C(C)(C)O)OCO4   true (1)
2  COc1ccc(/C=C/C(=O)c2ccc(N3CCN(C)CC3)cc2)c(C(F)(F)F)c1  false (0)
3  Nc1nnc(-c2c[nH]c3ncccc23)c(-c2c[nH]c3ccc(Br)cc23)n1   true (1)
4  Cc1nc2c(cnn2-c2ccccc2)c(=O)n1-c1ccc(NC(=O)c2ccc(F)cc2)cc1   true (1)

* * *

Measured growth values are reported for all entries that follow.
# System: OVCAR-5 ovarian
# assaySummary: NCI-60 one-dose screen, 48 h (100 = growth as untreated, 0 = no growth, -100 = all killed)
# conditionDescription: 10 µM
The panel holds about 83,000 compounds, 20% with a hit somewhere; the sample as a whole holds those more often.
measurementLabel: growth (%)

In [3]: df
Out[3]:
                                     smiles           system  unitstext  measvalue
0  O=C(NO)c1ccc(CNc2nc(-c3ccccc3)c3ccccc3n2)cc1  OVCAR-5 ovarian          %      -22.4
1  CN1C/C(=C\c2ccc(O)cc2O)c2[o+]c3cc(O)ccc3cc2C1  OVCAR-5 ovarian          %       72.1
2   CN(CCF)c1ccc(/C=C/C(=O)c2ccc(N)cc2O)cc1  OVCAR-5 ovarian          %         90
3  O=C(CSc1nnc(-c2c[nH]c3ccccc23)n1-c1ccccc1)c1ccc(Cl)cc1  OVCAR-5 ovarian          %       90.7
4  Cc1cc(C)nc(NS(=O)(=O)c2ccc(N/C(N)=N/c3nccc(-c4cccs4)n3)cc2)n1  OVCAR-5 ovarian          %        107
